# Tested on: EKVX NSCLC
# METHOD_SUMMARY: NCI tumour cell line growth inhibition, 48 h
Recorded measurements of TGI, one per entry

Answered examples (4):
>>> df
                                   molecule  study_target       val
0      N#Cc1ccc(OC(=O)c2ccc(N=C(N)N)cc2)cc1    EKVX NSCLC  > 100 µM
1  Cc1cc(O)c(C(=O)CC2(O)C(=O)Nc3c(Cl)cc(Cl)cc32)c(=O)o1 (stereo not drawn)    EKVX NSCLC  > 100 µM
2  Clc1ccc(-n2nnc(C3=NCCCN3)c2-c2ccccc2)cc1    EKVX NSCLC  > 100 µM
3  Cc1ncc([N+](=O)[O-])n1CCNS(=O)(=O)CCCn1ccnc1[N+](=O)[O-]    EKVX NSCLC  > 100 µM

*Q* Specify measured TGI for `Cc1cc(C)c(O)c(CNCCCCCCNCc2cc(C)cc(C)c2O)c1` .
*A* 3.65 µM

*Q* Output measured TGI for this item: O=c1c2ncn(C3CCCCO3)c2n(-c2ccccc2)c(=S)n1-c1ccccc1 (stereo not drawn)
*A* > 87.9 µM

*Q* Return the recorded TGI value; entry: `O=[N+]([O-])c1ccc(-c2nc(N(CCO)CCO)c3ccccc3n2)o1`
*A* 4.31 µM

* * *

# Test system: NCI/ADR-RES ovarian
# METHOD_SUMMARY: NCI tumour cell line growth inhibition, 48 h
OBSERVED_PROPERTY: TGI (µM)
Give the quantity in µM, number only.

Here is how some molecules turned out for TGI.
>>> df
                                   molecule         study_target   val
0  C/C=C(\C)C(=O)N[C@H]1[C@@H](OC(C)=O)C[C@]2(C)C3CC[C@@]4(C)C(CC[C@@H]4C(C)N(C)C)C3CCC2[C@H]1O (stereo partly specified)  NCI/ADR-RES ovarian  30.3
1  COc1ccc(/C=C2\Sc3nnc(C)n3N=C2c2cc(F)c(Cl)cc2Cl)cc1OC  NCI/ADR-RES ovarian  35.6

Query molecule follows.
*Q* Please report the measured TGI for CCCN=C1Nc2ccccc2[C@@H]2N(C)c3ccccc3C(C)C[C@]12C (stereo partly specified)
*A* 52

* * *

# Test system: A498 renal
# METHOD_SUMMARY: NCI tumour cell line growth inhibition, 48 h; in the data active = GI50 below about 0.43 µM; inactive = the rest
// one of active, inactive, no free text

>>> print(df.to_string())
                                compound  category
0  c1ccc(C(=NNc2nc3ccccc3o2)c2ccccn2)nc1    active

*Q* # lookup: test call for `CCN(CC)CCOc1ccc(Nc2ncc3cc(-c4ccc(O)cc4)c(=O)n(C)c3n2)cc1`
*A* inactive

*Q* Per the records of this test, what outcome belongs to `Nc1nc(Nc2ccc3c(c2)CC[C@@H](N2CCCC2)CC3)nn1-c1cc2c(nn1)-c1ccccc1CCC2` ?
*A* active

*Q* Name the outcome recorded for O=C(c1cc(F)c(Cl)cc1Cl)N1N=C(c2ccccc2)CC1(O)c1ccccc1 (stereo unspecified) in the assay.
*A* inactive

*Q* What did this assay record as the result for `C=C1CC[C@@]2(C#N)[C@H]3[C@H](CC[C@@H]2C)[C@@H](C)C[C@@H](CC(C)(C)C#N)[C@H]13` ?
*A* inactive

*Q* Assay result, entry `O=[N+]([O-])c1ccc(-c2nc(N(CCO)CCO)c3ccccc3n2)o1` — outcome?
*A* active

*Q* Could you please tell me the result logged for `C=C1C[C@@H]2C/C=C/C(=O)C/C(C)=C\C=C\C(=O)O[C@H](C=O)C/C(C)=C/[C@H](C1)O2` in this assay?
*A* inactive

*Q* Kindly provide the recorded test outcome for the following compound: `CC1(C)OC[C@@H]([C@@]2(CO[Si](C)(C)C(C)(C)C)CC=CC(=O)O2)O1`
*A* inactive
